Reference source: paper PMC10920834

- Tested on: PBM cells
- Method Description: Cell viability resazurin assay, PBM cells
- Assay type: cell-based, human
- Assay Setup: 24 h incubation, 1 µM, ± SD
Observable: viability of PBM cells relative to control

The recorded viability of PBM cells relative to control for "O=C1C=CC(=O)[N-]1.[C-]#[O+].[C-]#[O+].[Fe+2].c1cc[cH-]c1" is 103.84 ± 0.59%

// "O=C1C=CC(=O)[N-]1.[C-]#[O+].[Fe+2].c1cc[cH-]c1.c1ccc(P(c2ccccc2)c2ccccc2)cc1" : viability of PBM cells relative to control value = 98.54 ± 1.78%

"O=C1C=CC(=O)[N-]1.[C-]#[O+].[Fe+2].c1cc[cH-]c1.c1ccc(OP(Oc2ccccc2)Oc2ccccc2)cc1" has a reported viability of PBM cells relative to control of 98.46 ± 7.18%

viability of PBM cells relative to control recorded for this molecule, "O=C1C=CC(=O)[N-]1.[C-]#[O+].[Fe+2].c1cc[cH-]c1.c1coc(P(c2ccco2)c2ccco2)c1" , is 101.81 ± 0.86%

The molecule listed as "CCOP(OCC)OCC.O=C1C=CC(=O)[N-]1.[C-]#[O+].[Fe+2].c1cc[cH-]c1" has a reported viability of PBM cells relative to control of 104.14 ± 1.97%

====

- Test system: HL-60 cells
- Method Description: Cell viability resazurin assay, HL-60 cells
- Format: cell-based, human
- Assay Setup: 24 h incubation, 250 µM, ± SD
Mark Condition met for viability of HL-60 cells relative to control under 4%, Condition not met if at or over.

Is viability of HL-60 cells relative to control strictly under 4% for the entry "O=C1C=CC(=O)[N-]1.[C-]#[O+].[Fe+2].c1cc[cH-]c1.c1ccc(P(c2ccccc2)c2ccccc2)cc1" ? Condition not met

is_below(viability of HL-60 cells relative to control, 4%) for "O=C1C=CC(=O)[N-]1.[C-]#[O+].[Fe+2].c1cc[cH-]c1.c1ccc(OP(Oc2ccccc2)Oc2ccccc2)cc1" ? Condition met

Would you kindly verify if viability of HL-60 cells relative to control of "O=C1C=CC(=O)[N-]1.[C-]#[O+].[Fe+2].c1cc[cH-]c1.c1coc(P(c2ccco2)c2ccco2)c1" is strictly less than 4%? Condition not met

In the record for "O=C1C=CC(=O)[N-]1.[C-]#[O+].[C-]#[O+].[Fe+2].c1cc[cH-]c1" , is viability of HL-60 cells relative to control less than 4%? Condition met

I'd appreciate it if you could check whether "CCOP(OCC)OCC.O=C1C=CC(=O)[N-]1.[C-]#[O+].[Fe+2].c1cc[cH-]c1" has viability of HL-60 cells relative to control smaller than 4%. Condition not met

====

I'd be grateful if you could share measured viability of A549 cells relative to control for these entries.
- Tested on: A549 cells
- Method Description: Cell viability resazurin assay, A549 cells
- Type: cell-based, human
- Assay Setup: 24 h incubation, 50 µM, ± SD
Give your result in % as a bare value.

// "O=C1C=CC(=O)[N-]1.[C-]#[O+].[Fe+2].c1cc[cH-]c1.c1coc(P(c2ccco2)c2ccco2)c1" : viability of A549 cells relative to control value = 91.31

Item: "O=C1C=CC(=O)[N-]1.[C-]#[O+].[Fe+2].c1cc[cH-]c1.c1ccc(OP(Oc2ccccc2)Oc2ccccc2)cc1" | viability of A549 cells relative to control: 22.34

Lab note: measured viability of A549 cells relative to control of "O=C1C=CC(=O)[N-]1.[C-]#[O+].[C-]#[O+].[Fe+2].c1cc[cH-]c1" was 50.31

Per the record, "CCOP(OCC)OCC.O=C1C=CC(=O)[N-]1.[C-]#[O+].[Fe+2].c1cc[cH-]c1" has viability of A549 cells relative to control of 131.87

Documented viability of A549 cells relative to control of "O=C1C=CC(=O)[N-]1.[C-]#[O+].[Fe+2].c1cc[cH-]c1.c1ccc(P(c2ccccc2)c2ccccc2)cc1" : 105.46
